Measurement Target: T1, MLL3_(ePHD6)_(1075–1144) (human, UniProt Q8NEZ4 1075-1144)
T1 construct: MLL3 (KMT2C), human, residues 1075–1144; also called MLL3_ePHD6, residues 1075–1144; source: E. coli BL21 (DE3) Codon plus RIL, purified (Ni-NTA, thrombin, HiTrap Q, Superdex75); not shown: GST, N-terminal, cleaved; His tag, N-terminal, cleaved
T1 sequence (looked up): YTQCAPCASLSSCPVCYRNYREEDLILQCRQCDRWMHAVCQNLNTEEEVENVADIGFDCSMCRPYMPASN
Measurement Notes: ITC; peptide (1–2 mM) in the syringe injected into protein (50–100 μM) in the cell; 25 °C; 20 mM Tris pH 7.5, 150 mM NaCl; single-site binding model
Test Parameters: both partners purified
Observed Property: pKd
Please report pKd as the negative decimal logarithm of the molar concentration, giving only the number.

Form field pKd, entry GKGGAKRHRKV (peptide, UniProt P62805 12-22, looked up, histone H4, residues 11–21; also called H4H18 peptide; source: synthetic peptide (Peptide 2.0 Inc.)) [histone H4 peptide H4_(11–21)] : 4.51
